# credit: PubChem BioAssay AID1963961

- System: K98450-129-R-PDC multicell spheroids, viability;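 also: spheroids exposed to agents for seven days before read-out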
- EXPERIMENT_SUMMARY: Anticancer human tumor K98450-129-R-PDC patient-derived colon adenocarcinoma cell line growth inhibition [PI3K]
- APPLIED_CONDITIONS: curve of first compound; second compound 1 µM
pIC50: −log10 of the molar value.
MEASURE: pIC50

[P] CC(=O)c1c(C)c2cnc(Nc3ccc(N4CCNCC4)cn3)nc2n(C2CCCC2)c1=O + COc1c(OCCCN2CCOCC2)ccc2c3n(c(=NC(=O)c4cnc(N)nc4)nc12)CCN3
[Q] Cn1cnc2c(F)c(Nc3ccc(Br)cc3Cl)c(C(=O)NOCCO)cc21 + CC(Nc1ccc2c(c1)OCCn1cc(N3C(=O)OCC3C(F)F)nc1-2)C(N)=O
[R] C=CC(=O)N1CCN(c2nc(=O)n(-c3c(C)ccnc3C(C)C)c3nc(-c4c(O)cccc4F)c(F)cc23)C(C)C1 (stereo unspecified) + CC(Nc1ncnc2nc[nH]c12)c1cc2cccc(Cl)c2c(=O)n1-c1ccccc1
Your job: order these 3 records by pIC50, ascending. Put the labels in the requested order and list them out. R, Q, P
(R: 5.45, Q: 6.22, P: 7.34)
